Reported values of pKd for individual entries
Biological target: MS2 coat protein, dlFG mutant (Escherichia phage MS2, UniProt P03612, del68-81insG)
Assay: 4 mM Mg2+; L-tryptophan 2.4 mM; RNA-MaP array; 100 mM Tris-HCl pH 7.5, 80 mM KCl, 4 mM MgCl2, 0.1 mg/mL BSA, 1 mM DTT, 0.01 mg/mL yeast tRNA, 0.01% Tween-20; protein 1.5 nM to 3 uM; 37 C (Table S3)
Settings: chain copies: 2; label: tethered by stalled RNA polymerase
pKd: −log10 of the molar value.

binder: Eterna 7644049 (Same State - Tryptophan A) (ssRNA) RNA: ACAUGAGGAUCACCCAUGUCAUGAGGUUCACGAGGACCGGUACGGCCGCCACUCGACAUGAGGGUCACCCGUGAACGGAACACCC
pKd: 7.70

binder: Eterna 7613251 (Exclusion - Tryptophan A) (ssRNA) RNA: CGGACAUGAGGAUCACCCAUGUCGUCGACGCGAGGACCGGUACGGCCGCCACUCGCAUGCCAAUGAGCGCAUGCGGCCUGGGUAU
pKd: 7.64
